- System: CDK11
- Construct: gene CDK19
- details: concentration: 1 μM, replicates: in singlicate; n = 1;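 also: KINOMEscan kinase panel screen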
measure: %Inh
Write down the value, and be sure its unit follows.

compound	observed measurement
CS(=O)(=O)CCNCc1nc(-c2ccc3ncnc(Nc4ccc(OCc5ccccc5)c(Cl)c4)c3c2)cs1.Cl [GW582764]	0%
O=c1cc(N2CCOCC2)nc2n(Cc3cccc(Cl)c3Cl)c3ccccc3n12 [GSK2299009]	94.4%
Nc1ncnc2occ(-c3ccc4c(c3)CCN4C(=O)Cc3cc(F)ccc3F)c12 [GSK2645446]	81%
Cn1cncc1C(=O)NC1CCN(c2ccnc(Nc3ccc(F)cc3)n2)C1 (stereo not drawn) [GSK1379717]	3%
CC(=O)c1c(C)c2cnc(Nc3ccn(C)n3)nc2n(C2CCCC2)c1=O	2%

response.value for CNCc1ccc2nc(NC(=O)c3ccc(C(C)(C)C)cc3)cn2c1 (field: %Inh) = 4%

response.value for COC(=O)C(Cc1ccccc1)NC(=O)NC1CCN(c2ccnc(Nc3ccc(F)cc3)n2)C1 (stereo not drawn) [GSK1379714] (field: %Inh) = 48%

response.value for Cc1cnc(N)c(/C=C/c2cncc(C(=O)NCCc3ccc(Cl)cc3Cl)c2)c1.Cl [GSK190937] (field: %Inh) = 92.8%

response.value for O=C(Nc1n[nH]c2nc(-c3cccs3)c(Br)cc12)C1CCCC1 [SB-743341] (field: %Inh) = 0%

----------
- Tested on: MLK1
- Construct: gene MAP3K9
- details: concentration: 1 μM, replicates: in singlicate; n = 1
measure: %Inh (%)
Enter your answer as a number in %; do not include the unit.

Worked cases, %Inh given:
compound	observed measurement
CC(C)c1cc(-c2ccc3c(N)n[nH]c3c2)nc(N)n1 [GSK2250882]	0
CNc1nc(-c2ccc3c(N)n[nH]c3c2)cc(N2C[C@@H](C(=O)Nc3ccccc3)CC[C@H]2C)n1 [GSK2298859]	0
Cc1ccc(NC(=O)Nc2ccc(Cl)c(C(F)(F)F)c2)cc1-c1ccc(C(=O)Nc2ccncc2)cc1 [GSK1398470]	10
CS(=O)(=O)Cc1ccc(Nc2nccc(-c3c(-c4cccc(NC(=O)C5CCCCC5)c4)nn4ncccc34)n2)cc1 [GSK350559]	2

response.value for COc1ccc(CSc2nnc(-c3ccc4nccn4c3)o2)cc1C(F)(F)F (field: %Inh) = 0

response.value for COc1cccc(CNC(=O)NC2CCN(c3ccnc(Nc4ccc(F)cc4)n3)C2)c1 (centres unmarked) [GSK1379723] (field: %Inh) = 0

response.value for Cc1cnc(N)c(/C=C/c2cncc(C(=O)NCCc3ccc(Cl)cc3Cl)c2)c1.Cl [GSK190937] (field: %Inh) = 0

response.value for O=C(Nc1n[nH]c2nc(-c3ccco3)c(Br)cc12)C1CCN(Cc2ccccc2)C1.O=C(O)[C@H](O)[C@@H](O)C(=O)O (centres unmarked) [SB-742034] (field: %Inh) = 8

response.value for O=C1NC(=O)C(c2ccc(Cl)cc2)=C1Nc1cccc(Cl)c1 [SB-317651] (field: %Inh) = 0

response.value for CS(=O)(=O)CCNCc1nc(-c2ccc3ncnc(Nc4ccc(OCc5ccccc5)c(Cl)c4)c3c2)cs1.Cl [GW582764] (field: %Inh) = 0

response.value for CSc1ccc(-c2nc3n(c2-c2ccncc2)CCC3)cc1 [SKF-105561] (field: %Inh) = 0

response.value for Fc1ccc(-c2nn3cccc(F)c3c2-c2ccncc2)cc1 [GW475620] (field: %Inh) = 2

response.value for CNCc1ccc2nc(NC(=O)c3ccc(C(C)(C)C)cc3)cn2c1 (field: %Inh) = 8

response.value for Cn1cncc1C(=O)NC1CCN(c2ccnc(Nc3ccc(F)cc3)n2)C1 (centres unmarked) [GSK1379717] (field: %Inh) = 0

response.value for FC(F)(F)c1ccccc1-c1cc(-c2c[nH]nc2-c2ccccn2)ccn1 [GW679396] (field: %Inh) = 0

response.value for Cc1ccc(NC(=O)Nc2ccccc2F)cc1-c1ccc(C(=O)Nc2ccncc2)cc1 [GSK1398477] (field: %Inh) = 4

response.value for Cc1ccc(NC(=O)Nc2ccccc2)cc1-c1ccc(C(=O)Nc2ccncc2)cc1 [GSK1398471] (field: %Inh) = 0

response.value for COc1ccc(-c2coc3ccc(-c4nnc(C)o4)cc23)cc1 (field: %Inh) = 0
